Values were extracted from PubChem BioAssay (Tox21).

Assay method text: qHTS RealTime-Glo MT Cell Viability Assay in HepG2 cells - 24 hour (AID 1224867); further: nearly all actives have a fitted effect of over 50% in size
Recorded conditions: RealTime-Glo luminescence; series mostly up to 76.8 µM
Results filed as inconclusive are left out. Active and inactive are the calls of the source. The call rests on the fitted dose curve; in most records, active means well fitted cell-killing curve with a large enough effect in the repeat runs; inconclusive means weak or mixed curves; inactive means flat fitted curve, though single readings scatter.
Possible outcomes: active, inactive

>>> print(df.to_string())
                                    compound  class_assignment
 0  CC(C)C(Nc1ccc(C(F)(F)F)cc1Cl)C(=O)OC(C#N)c1cccc(Oc2ccccc2)c1 (stereo not drawn)          inactive
 1                                   CC(C)Br          inactive
 2            COP(=S)(OC)Oc1nc(Cl)c(Cl)cc1Cl          inactive
 3                        CNC(C)(C)Cc1ccccc1          inactive
 4  CCCCC(CC)COC(=O)OOC(C)(C)C (stereo not drawn)          inactive
 5                          C=Cc1cccc(CCl)c1          inactive
 6  O=S1OCC2C(CO1)C1(Cl)C(Cl)=C(Cl)C2(Cl)C1(Cl)Cl (stereo not drawn)            active
 7  CCC[CH2][Sn]([CH2]CCC)([CH2]CCC)[CH2]CCC            active
 8  CSC1=N[C@@](C)(c2ccccc2)C(=O)N1Nc1ccccc1          inactive
 9     COP(=S)(OC)Oc1ccc([N+](=O)[O-])c(C)c1          inactive
10                               O=S(=O)(O)F          inactive
11                           Oc1cccc(Cl)c1Cl          inactive
12    Cc1ccn2nc(S(=O)(=O)Nc3c(F)cccc3F)nc2n1          inactive
